This collection of values is drawn from paper PMC5641120.

procedureSummary: Cytotoxicity (metabolic activity assay) against PD-1 Effector Cells
conditionParameters: human, PD-1 Effector Cells (modified Jurkat T cells, ECs)
measuredMetric: EC50 at 48 h (µM)
Reply with just the number (in µM).

Per the record, Cc1cc(CN[C@H](CO)C(=O)O)c(OCc2cccc(C#N)c2)cc1OCc1cccc(-c2ccc3c(c2)OCCO3)c1C has EC50 at 48 h of 33.4
